Listed molecules paired with reported pIC50
Test system: MCF-10A
test: Cytotoxicity against human MCF10A cells after 48 hrs by MTT assay
Type: cell-based
The meaning of pIC50 here: minus log10 of the concentration in molar units.

Past entries and their recorded results:
[[record]]
molecule = "CC[C@]1(O)Cc2c(O)c3c(c(O)c2[C@@H](O[C@H]2C[C@H](O)[C@H](O[C@H]4CC[C@H](O[C@H]5CC[C@H](O)[C@H](C)O5)[C@H](C)O4)[C@H](C)O2)C1)C(=O)c1c(O)cccc1C3=O"
endpoint_value = 5.66

[[record]]
molecule = "CC[C@@]1(O)C[C@H](O[C@H]2CC[C@H](O[C@H]3C[C@H](O)[C@H](O[C@H]4CC[C@H](O)[C@H](C)O4)[C@H](C)O3)[C@H](C)O2)c2c(O)c3c(c(O)c2[C@H]1C(=O)OC)C(=O)c1cccc(O)c1C3=O"
endpoint_value = 5.34


**Q:** Returns the measured pIC50 for the input molecule. Input: CC[C@@]1(O)C[C@H](O[C@H]2CC[C@H](O[C@H]3C[C@H](O)[C@H](O[C@H]4CC[C@H](O)[C@H](C)O4)[C@H](C)O3)[C@H](C)O2)c2c(O)c3c(c(O)c2[C@H]1O)C(=O)c1cccc(O)c1C3=O
**A:** 5.17

**Q:** Entry COc1cccc2c1C(=O)c1c(O)c3c(c(O)c1C2=O)C[C@@](O)(C(=O)CO)C[C@@H]3O[C@H]1C[C@H](N)[C@@H](O)[C@H](C)O1 [EPIRUBICIN] has what pIC50?
**A:** 7.00

====

System: MDA-MB-231
test: Cytotoxicity against human MDA-MB-231 cells after 48 hrs by MTT assay
Format: functional, cell-based
experimental_context: MDA-MB-231, 48 h
measured_property: pIC50
Recall that pIC50 is obtained by taking minus log10 of the concentration measured in molar.

# count of solved cases: 6
[[record]]
compound = "CC[C@@]1(O)C[C@H](O[C@H]2C[C@H](O)[C@H](O[C@H]3CC[C@H](O[C@H]4CC[C@H](O)[C@H](C)O4)[C@H](C)O3)[C@H](C)O2)c2c(O)c3c(c(O)c2[C@H]1O)C(=O)c1cccc(O)c1C3=O"
measured_property = "pIC50"
endpoint_value = 4.98

[[record]]
compound = "CC[C@@]1(O)C[C@H](O[C@H]2CC[C@H](O[C@H]3C[C@H](O)[C@H](O[C@H]4CCC(=O)[C@H](C)O4)[C@H](C)O3)[C@H](C)O2)c2c(O)c3c(c(O)c2[C@H]1O)C(=O)c1cccc(O)c1C3=O"
measured_property = "pIC50"
endpoint_value = 4.62

[[record]]
compound = "CC[C@@]1(O)C[C@H](O[C@H]2C[C@H](O)[C@H](O[C@H]3C[C@H](O)[C@H](O)[C@H](C)O3)[C@H](C)O2)c2c(O)c3c(c(O)c2[C@H]1O)C(=O)c1cccc(O)c1C3=O"
measured_property = "pIC50"
endpoint_value = 4.99

[[record]]
compound = "CC[C@@]1(O)C[C@H](O[C@H]2C[C@H](O)[C@H](O[C@H]3C[C@H](O)[C@H](O[C@H]4C[C@H](O)[C@H](O)[C@H](C)O4)[C@H](C)O3)[C@H](C)O2)c2c(O)c3c(c(O)c2[C@H]1O)C(=O)c1cccc(O)c1C3=O"
measured_property = "pIC50"
endpoint_value = 4.40

[[record]]
compound = "CC[C@@]1(O)C[C@H](O[C@H]2CC[C@H](O[C@H]3C[C@H](O)[C@H](O[C@H]4CC[C@H](O)[C@H](C)O4)[C@H](C)O3)[C@H](C)O2)c2c(O)c3c(c(O)c2[C@H]1C(=O)OC)C(=O)c1cccc(O)c1C3=O"
measured_property = "pIC50"
endpoint_value = 5.03

[[record]]
compound = "CC[C@@]1(O)C[C@H](O[C@H]2C[C@H](O)[C@H](O[C@H]3C[C@H](O)[C@H](O[C@H]4CC[C@H](O)[C@H](C)O4)[C@H](C)O3)[C@H](C)O2)c2c(O)c3c(c(O)c2[C@H]1O)C(=O)c1cccc(O)c1C3=O"
measured_property = "pIC50"
endpoint_value = 5.13


**Q:** pIC50 lookup needed for CC[C@@]1(O)C[C@H](O[C@H]2C[C@H](O)[C@H](O[C@H]3CC[C@H](O[C@H]4CC[C@H](OC5CC[C@H](O)[C@H](C)O5)[C@H](C)O4)[C@H](C)O3)[C@H](C)O2)c2c(O)c3c(c(O)c2[C@H]1O)C(=O)c1cccc(O)c1C3=O (stereo not given in full) , thanks.
**A:** 5.00

**Q:** Look up pIC50: CC[C@@]1(O)C[C@H](O[C@H]2CC[C@H](O[C@H]3C[C@H](O)[C@H](O[C@H]4CC[C@H](O)[C@H](C)O4)[C@H](C)O3)[C@H](C)O2)c2c(O)c3c(c(O)c2[C@H]1O)C(=O)c1cccc(O)c1C3=O
**A:** 4.61
